# Tested on: Yellow Fever Mosquito (Aedes aegypti, AEDSAE)
# measurement.notes: Bioassay on Yellow Fever Mosquito (YFM) larvae, 96-well plate
# Format: in vivo
# protocol.conditions: about 1 day-old larvae, room temperature, 3 days, scored on mortality

{"compound": "O=C(NCC(F)(F)F)c1cc(NC(=O)[C@H]2[C@H](c3cc(Cl)cc(Cl)c3)C2(Cl)Cl)c(Cl)cc1Cl (relative stereo) [F100]", "YFM % Control (or Mortality) rating": "A (80-100)"}
{"compound": "O=C(NCCC1CC1)c1cc(NC(=O)C2C(c3ccc(Cl)c(Cl)c3)C2(Cl)Cl)ccc1Cl (stereo not shown) [F25]", "YFM % Control (or Mortality) rating": "A (80-100)"}
{"compound": "O=C(NCc1ccc(C(F)(F)F)cc1)c1cc(NC(=O)[C@H]2[C@H](c3cc(Cl)cc(Cl)c3)C2(Cl)Cl)ccc1Cl (relative stereo) [F41]", "YFM % Control (or Mortality) rating": "A (80-100)"}
